In this section, each of the molecules is paired with its reported Ki.
Measurement target: C-CBL (residues 46-435) (Homo sapiens)
Construct: Purified CBL-B (residues 36-427) and C-CBL (residues 46-435) proteins from baculovirus-infected insect cells; made in house; host or cells: baculovirus-infected insect cells
Sequence (P22681 46-435): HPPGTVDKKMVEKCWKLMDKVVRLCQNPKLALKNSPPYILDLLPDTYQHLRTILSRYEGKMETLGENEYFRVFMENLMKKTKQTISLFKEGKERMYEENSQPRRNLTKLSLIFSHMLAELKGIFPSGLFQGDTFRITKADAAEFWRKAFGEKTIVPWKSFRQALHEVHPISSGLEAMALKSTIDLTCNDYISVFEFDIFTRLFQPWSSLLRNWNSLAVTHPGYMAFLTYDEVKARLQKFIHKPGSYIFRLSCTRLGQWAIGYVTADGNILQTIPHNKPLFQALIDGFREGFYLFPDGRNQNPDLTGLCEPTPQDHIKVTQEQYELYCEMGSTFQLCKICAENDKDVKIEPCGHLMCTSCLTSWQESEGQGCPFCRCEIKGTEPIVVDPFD
Assay remarks: Ligand Displacement Assay (LDA), HTRF competitive binding against BODIPY-labeled fluorescent tracer, C-CBL
Test conditions: geometric mean of the number of tests, read-out: C-CBL Ki (nM) GMean
Give the value, in units of nM, as a plain number.

Illustrative cases are given below, each with its answer.
1. CC(=O)NCC(C)c1nc(C(F)(F)F)cc2c(-c3cccc([C@H](c4nncn4C)C4CCC4)c3)n[nH]c12 (single isomer, unassigned) [Example M4] = 157
2. CC(N[C@H]1CCOC1)c1nc(C(F)(F)F)cc2c(-c3cccc(C4(Cc5nncn5C)COC4)c3)n[nH]c12 (single isomer, unassigned) [Example C82] = 23.3

Shifting focus to the molecule that follows.
Query block: Fill in the blank: the reported Ki of C[C@H](NC(C)(C)CO)c1nc(C(F)(F)F)cc2c(-c3cccc([C@H](c4nncn4C)C4CCC4)c3)n[nH]c12 (single isomer, unassigned) is ____.
Result block: 33.2

* * *

Measurement target: CBL-B (Homo sapiens, UniProt Q13191)
Construct: endogenous in cells; host or cells: Jurkat HiBit-IL2 reporter cells, C-CBL knocked out by CRISPR
Assay remarks: Jurkat HiBit-IL2 assay (c-CBL KO), reporter cell line expressing CBL-B only
Type: cell-based
Test conditions: C-CBL KO (expressing CBL-B only), geometric mean, Table 16b (further repetition), read-out: C-CBL KO EC50 (nM) GMean
Source text: Jurkat HiBit-IL2 Assay (WT, c-CBL KO, CBL-B KO) The purpose of the Jurkat HiBit-IL2 assay is to evaluate the effect of the inhibition of CBL-B and/or C-CBL on TCR/CD28 stimulated interleukin-2 (IL-2) secretion. The expression of IL-2 can then be accurately measured by HiBit luciferase assay. Further, C-CBL or CBL-B was knocked out by CRISPR respectively in this Jurkat HiBit-IL2 reporter cell line to create reporter cell line expressing CBL-B only (c-CBL knockout (KO)) or C-CBL only (CBL-B KO). […]
In this section, each of the compounds is paired with its reported log10(EC50).
Please interpret these as log10 of EC50 where EC50 is in nM.

Query block: # get_value(readout= log10(EC50), system= CBL-B (Homo sapiens, UniProt Q13191)) for CC(O)CNC(C)c1nc(C2CC2)cc2c(-c3cccc(C(c4nncn4C)C4CCC4)c3)n[nH]c12 (single isomer, unassigned) [Example H1]
Result block: 2.01

Query block: // query: C[C@H](N[C@@H]1COC[C@H]1O)c1nc(C(F)(F)F)cc2c(-c3cccc([C@H](c4nncn4C)C4CCC4)c3)n[nH]c12 (single isomer, unassigned)
Result block: 2.43

Query block: // query: CC(NCCO)c1nc(C(F)(F)F)cc2c(-c3cccc([C@H](c4nncn4C)C4CCCCC4)c3)n[nH]c12 (single isomer, unassigned) [Example C40]
Result block: 2.33

* * *

Measurement target: CBL-B (residues 36-427) (Homo sapiens, UniProt Q13191)
Construct: Purified CBL-B (residues 36-427) and C-CBL (residues 46-435) proteins from baculovirus-infected insect cells; made in house; host or cells: baculovirus-infected insect cells
Assay remarks: Ligand Displacement Assay (LDA), HTRF competitive binding against BODIPY-labeled fluorescent tracer, CBL-B
Test conditions: geometric mean of the number of tests, read-out: CBL-B Ki (nM) GMean
In this section, each of the compounds is paired with its reported Ki.
Give the value, in units of nM, as a plain number.

Illustrative cases are given below, each with its answer.
1. C[C@@H](c1nc(C(F)(F)F)cc2c(-c3cccc(C4(Cc5nncn5C)COC4)c3)n[nH]c12)N(C)C (single isomer, unassigned) = 42.1
2. Cn1cnnc1CC1(c2cccc(-c3n[nH]c4ccc(F)cc34)c2)COC1 = 71.8
3. C[C@@H](CO)N[C@H](C)c1nc(C(F)(F)F)cc2c(-c3cccc([C@H](c4nncn4C)C4CCC4)c3)n[nH]c12 (single isomer, unassigned) = 8.4
4. C[C@H](c1nc(C(F)(F)F)cc2c(-c3cccc(C4(Cc5nncn5C)COC4)c3)n[nH]c12)N1CCNCC1 (single isomer, unassigned) = 20.9
5. C[C@@H](O)CN[C@H](C)c1nc(C(F)(F)F)cc2c(-c3cccc([C@H](c4nncn4C)C4CCC4)c3)n[nH]c12 (single isomer, unassigned) = 1.8

Query block: Fill in the blank: the reported Ki of Cn1cnnc1[C@@H](c1cccc(-c2n[nH]c3c(CN[C@H]4CCC(F)(F)C4)nc(C(F)(F)F)cc23)c1)C1CCC1 (single isomer, unassigned) is ____.
Result block: 11

Query block: // query: CC(c1nc(C(F)(F)F)cc2c(-c3cccc(C4(Cc5nncn5C)COC4)c3)n[nH]c12)N1CCOCC1 (single isomer, unassigned) [Example C23]
Result block: 5.7

Query block: // query: C[C@@H](N[C@@H]1COC[C@H]1O)c1nc(C(F)(F)F)cc2c(-c3cccc([C@H](c4nncn4C)C4CCC4)c3)n[nH]c12 (single isomer, unassigned)
Result block: 12.3

* * *

Measurement target: C-CBL (Homo sapiens)
Construct: endogenous in cells; host or cells: Jurkat HiBit-IL2 reporter cells, CBL-B knocked out by CRISPR
Assay remarks: Jurkat HiBit-IL2 assay (CBL-B KO), reporter cell line expressing C-CBL only
Assay type: cell-based
Test conditions: CBL-B KO (expressing C-CBL only), geometric mean, Table 16b (further repetition), read-out: CBL-B KO EC50 (nM) GMean
Each record is given fulfilled if its reported EC50 is strictly below 500 nM. Records at or above 500 nM are given not fulfilled.

Recorded results for 6 compounds are shown here.
1. CCC(CC)(CO)N[C@@H](C)c1nc(C(F)(F)F)cc2c(-c3cccc([C@H](c4nncn4C)C4CCC4)c3)n[nH]c12 (single isomer, unassigned) = not fulfilled
2. C[C@H](NC(C)(C)CO)c1nc(C(F)(F)F)cc2c(-c3cccc([C@H](c4nncn4C)C4CCC4)c3)n[nH]c12 (single isomer, unassigned) = not fulfilled
3. CC(NCCO)c1nc(C(F)(F)F)cc2c(-c3cccc([C@H](c4nncn4C)C4CCCCC4)c3)n[nH]c12 (single isomer, unassigned) [Example C40] = not fulfilled
4. CC(NCC(C)(C)O)c1nc(C(F)(F)F)cc2c(-c3cccc([C@H](c4nncn4C)C4CCC4)c3)n[nH]c12 (single isomer, unassigned) [Example C45] = fulfilled
5. C[C@H](CO)N[C@@H](C)c1nc(C(F)(F)F)cc2c(-c3cccc([C@H](c4nncn4C)C4CCC4)c3)n[nH]c12 (single isomer, unassigned) = not fulfilled
6. C[C@@H](N[C@H]1CC[C@@H]1O)c1nc(C(F)(F)F)cc2c(-c3cccc([C@H](c4nncn4C)C4CCC4)c3)n[nH]c12 (single isomer, unassigned) = fulfilled

Query block: Decide: EC50 of C[C@H](N[C@@H]1CCOC1)c1nc(C(F)(F)F)cc2c(-c3cccc([C@H](c4nncn4C)C4CCC4)c3)n[nH]c12 (single isomer, unassigned) [Example D2] strictly below 500 nM?
Result block: fulfilled

Query block: // query: CCNC(C)c1nc(C(F)(F)F)cc2c(-c3cccc([C@H](c4nncn4C)C4CCC4)c3)n[nH]c12 (single isomer, unassigned)
Result block: fulfilled

Query block: // query: C[C@H](O)C(=O)N[C@@H](C)c1nc(C(F)(F)F)cc2c(-c3cccc([C@H](c4nncn4C)C4CCC4)c3)n[nH]c12 (single isomer, unassigned)
Result block: fulfilled

Query block: // query: CC(NC(=O)CO)c1nc(C(F)(F)F)cc2c(-c3cccc([C@H](c4nncn4C)C4CCC4)c3)n[nH]c12 (single isomer, unassigned)
Result block: fulfilled

Query block: // query: CC(NC1CCCC1)c1nc(C(F)(F)F)cc2c(-c3cccc([C@H](c4nncn4C)C4CCC4)c3)n[nH]c12 (stereo partly drawn)
Result block: fulfilled
